pKi: −log10 of the molar value.
Consider molecules characterized by their pKi with Histamine H3 receptor (Cavia porcellus, UniProt Q9JI35).
Sequence (Q9JI35 whole entry): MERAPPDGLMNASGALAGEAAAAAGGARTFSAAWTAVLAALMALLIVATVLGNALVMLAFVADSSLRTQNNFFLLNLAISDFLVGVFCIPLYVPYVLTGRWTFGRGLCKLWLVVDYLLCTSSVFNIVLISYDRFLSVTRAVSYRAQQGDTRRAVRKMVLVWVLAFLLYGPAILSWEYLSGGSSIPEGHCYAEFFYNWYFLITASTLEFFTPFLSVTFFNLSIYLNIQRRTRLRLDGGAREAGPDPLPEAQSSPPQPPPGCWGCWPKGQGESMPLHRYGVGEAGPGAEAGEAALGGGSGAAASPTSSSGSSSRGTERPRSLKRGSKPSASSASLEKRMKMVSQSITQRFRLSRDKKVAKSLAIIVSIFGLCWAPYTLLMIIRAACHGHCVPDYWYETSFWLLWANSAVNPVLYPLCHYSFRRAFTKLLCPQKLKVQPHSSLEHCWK

| Molecule | Result Qualifier | pKi |
| --- | --- | --- |
| N[C@H]1CCC[C@@H]1c1cnc[nH]1 (racemic) | = | 6.13 |
| C[C@@H]1NCC[C@H]1c1c[nH]cn1 | = | 7.48 |
| C[C@@H](N)[C@@H](C)c1c[nH]cn1 (racemic) | = | 7.96 |
| C[C@H]1NCC[C@@H]1c1c[nH]cn1 | = | 8.55 |
| C[C@@]1(N)CCCC[C@@H]1c1cnc[nH]1 (racemic) | < | 5.70 |
| C[C@@H](N)Cc1c[nH]cn1 | = | 8.82 |
| C[C@]1(N)CCCC[C@@H]1c1c[nH]cn1 (racemic) | < | 5.70 |
